- target_or_test_system: T1, human ferroportin (SLC40A1) fused in frame with GFP, stably expressed in HEK293 cells (human, UniProt Q9NP59 1-571)
- T1 sequence (looked up): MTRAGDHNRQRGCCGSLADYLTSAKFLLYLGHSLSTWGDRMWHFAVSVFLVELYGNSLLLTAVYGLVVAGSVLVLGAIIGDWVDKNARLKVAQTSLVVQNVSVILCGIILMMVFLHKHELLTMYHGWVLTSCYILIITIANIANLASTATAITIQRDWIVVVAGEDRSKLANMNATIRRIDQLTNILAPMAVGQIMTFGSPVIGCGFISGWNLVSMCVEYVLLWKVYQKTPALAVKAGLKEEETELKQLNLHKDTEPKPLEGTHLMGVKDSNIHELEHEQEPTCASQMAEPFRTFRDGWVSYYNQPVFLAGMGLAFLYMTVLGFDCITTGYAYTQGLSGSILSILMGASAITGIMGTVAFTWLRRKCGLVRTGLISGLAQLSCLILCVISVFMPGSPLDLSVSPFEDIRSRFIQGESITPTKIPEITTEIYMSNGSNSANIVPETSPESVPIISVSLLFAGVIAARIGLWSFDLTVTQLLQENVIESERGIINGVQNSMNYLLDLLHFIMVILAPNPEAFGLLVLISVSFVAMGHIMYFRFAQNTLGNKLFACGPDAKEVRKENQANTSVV
- experiment_description: cell-based or functional assay
Primed or numbered codes have the meaning given here. Side chains are listed from the residue outwards. * marks the point of attachment. PEG8″ = PEG8 spacer conjugated to the Lys side chain; Palmitoyl = CCCCCCCCCCCCCCCC(=O)*; Me3Gly = C[N+](C)(C)CC(=O)*; Isovaleryl = CC(C)CC(=O)*; PEG3′ = not defined here
Tag: criterion met if measured Potency EC50 is not below 200 nM, criterion not met if it is.

Has {Isovaleryl-PEG3′}-DTHFPCIKFGPRSKGWVCK-NH2 (cysteine pairing not given here) [Compound 161] a recorded Potency EC50 greater than or equal to 200 nM?
criterion met

Has Isovaleryl-DTHFPCIIFGPRSRGWVCK(PEG8″)-NH2 (not fully specified (bridges); cysteine pairing not given here) [Compound 178] a recorded Potency EC50 greater than or equal to 200 nM?
criterion not met

Has Isovaleryl-DTHFPCIIFGPRSKGWECK-NH2 (not fully specified (bridges); cysteine pairing not given here) [Compound 172] a recorded Potency EC50 greater than or equal to 200 nM?
criterion not met

Has Isovaleryl-DTHFPCIKFGPRSK(Me3Gly)GWVCK-NH2 (cysteine pairing not given here) [Compound 157] a recorded Potency EC50 greater than or equal to 200 nM?
criterion not met

Has Isovaleryl-DTHFPCIKFGPRSK([PEG3′-Palmitoyl])GWVCK-NH2 (cysteine pairing not given here) [Compound 202] a recorded Potency EC50 greater than or equal to 200 nM?
criterion not met

Has H-DTHFPICIFGPRAKGWVCM-NH2 (cysteine pairing not given here) [Compound 28] a recorded Potency EC50 greater than or equal to 200 nM?
criterion not met

Has H-DTHFPCIFF-NH2 [Compound 56] a recorded Potency EC50 greater than or equal to 200 nM?
criterion met

Has H-ATHFPICIFGPRSKGWVCM-NH2 (cysteine pairing not given here) [Compound 33] a recorded Potency EC50 greater than or equal to 200 nM?
criterion not met

Has Isovaleryl-DTHFPCIIFGPRSKGWVCK-NH2 (not fully specified (bridges); cysteine pairing not given here) [Compound 11] a recorded Potency EC50 greater than or equal to 200 nM?
criterion not met
